Data origin: patent US20100075908A1

pIC50 overview
Target: T1, GPIb on human platelets (human, UniProt P07359 17-652; P13224 26-206)
T1 construct: whole, on cells; also called platelet GPIb
Experiment: inhibition of vWf binding to platelets in PRP, flow cytometry (FITC anti-human vWf)
Protocol: In order to prepare human platelets for testing, as approved by Canadian Blood Services' Ethics Board, samples of whole blood were drawn from healthy, consenting donors into 2.7-4.0 mL citrated tubes (BD, USA). […] PRP from a number of unrelated donors were evaluated on an Adiva 120 Hematology Analyzer (Bayer, Canada) and standardized to a concentration of 300×10⁹ platelets/L in HEPES buffered saline (HBS, 10 mM HEPES, 150 mM NaCl, pH 7.4). […]
pIC50: −log10 of the molar value.

Binder: CGGGGGGSHAYIGLKDR (L-amino acids; free peptide) [L-CGGGGGGSHAYIGLKDR (L-peptide)]
pIC50: 4.32
//
Binder: CGGGGGGRDKLGIYAHS (Linker CGGGGGG followed by the reversed mimotope; L-amino acids; free peptide; also called LR-pep; LR-peptide) [L-CGGGGGGRDKLGIYAHS (L-retro peptide)]
pIC50: 4.47
